// provenance: PubChem BioAssay (NCI)

tested on: SK-OV-3 ovarian; test: NCI-60 one-dose screen, 48 h (100 = growth as untreated, 0 = no growth, -100 = all killed); conditions: 10 µM unless noted
Compounds without any hit were thinned out: in the full panel of roughly 83,000, 20% have a hit.
Listing: growth of selected compounds
// note: answer is a bare numeric in %

Please review the entries below; each comes with its answer.
                                   compound   measuredtarget  unitofmeasurement  assayresult
0  Cc1nc2ncc(-c3ccc4ncnc(NCc5ccccc5)c4c3)cc2[nH]1  SK-OV-3 ovarian                  %         52.5
1  N=c1c2cc(-c3ccccc3)oc2ncn1/N=C/c1ccc(Cl)cc1  SK-OV-3 ovarian                  %         99.7

// growth lookup, compound = COc1cccc(/C=C(/C)c2ccc3cccc(OC)c3[o+]2)c1O , result: 107

// growth lookup, compound = CCn1c(SCC(=O)Nc2cccc(C(=O)/C=C/c3ccc(C)cc3)c2)nc2ccccc2c1=O , result: 110

// growth lookup, compound = Cc1cc(-c2ccc(Cl)cc2)n(Cc2nnc(SCC(=O)Nc3ccc(S(N)(=O)=O)cc3)n2C2CCCCC2)n1 , result: 106

// growth lookup, compound = Cn1cc(-c2nc(N)nnc2-c2c[nH]c3ccccc23)c2cc(Br)ccc21 , result: 29.7

* * *

system: SK-MEL-2 melanoma; assay: NCI-60 one-dose screen, 48 h (100 = growth as untreated, 0 = no growth, -100 = all killed); conditions: 10 µM unless noted
Compounds without any hit were thinned out: in the full panel of roughly 83,000, 20% have a hit.
Rule: growth below 40% gives 1, anything at or above gives -1.

Use the examples below as a reference point.
                                smilesinput  class
0  N#Cc1c(-c2cccs2)cc(-c2cnccn2)nc1SCC(=O)c1ccc(F)cc1     -1
1  CCCCCc1ccc(S(=O)(=O)Nc2cc(-c3csc(NC(=O)CN4CCN(C)CC4)n3)ccc2N2CCN(C)CC2)cc1      1
2  Nc1ccccc1NC(=O)c1ccc(NC(=O)C/C=C/c2cccnc2)cc1      1
3   COc1ccc2[nH]cc(/C=N/Nc3nc4ccccc4s3)c2c1     -1

Now take the following compound into account.
growth under 40%? Item: c1n[nH]cc1-c1nc2ccc3[nH]ncc3c2c2c1CCCC2 1

* * *

Tested on: NCI-H522 lung
Experiment: NCI-60 one-dose screen, 48 h
Conditions: 10 µM unless noted
Method: Growth inhibition of the NCI-H522 human Non-Small Cell Lung tumor cell line is measured as a screen for anti-cancer activity. Cells are grown in 96 well plates and exposed to the test compound for 48 hours. Compounds are tested at a single concentration, which is 10^-5 M for most compounds. The reported endpoint is percent growth (GI% or GIPRCNT), where numbers from 0 - 100% represent growth inhibition, and numbers from -100% - 0 represent cell death. […]
About 83,000 compounds went through this panel and 20% of them were active in at least one assay; those are over-represented in the sample as a whole. The source made the active and inactive calls. The calls were made as follows: active = growth percent below 10; inactive = the rest.
I would appreciate it if you answered using one of these outcomes: 1.0 (active), 0.0 (inactive)

Use the examples below as a reference point.
>>> df
                                   compound  class
0  O=C1CCCC2=C1C(c1c[nH]c3ccc(Br)cc13)Cc1cc(Br)ccc1N2 (stereo not drawn)    0.0
1  Nc1cc(-c2c[nH]c3ccc(Br)cc23)nc2cc(-c3c[nH]c4ccc(Br)cc34)nn12    1.0
2  CCCn1cnc2c(c1=N)C(c1ccc(OC)cc1)c1sc3c(CC)cccc3c1O2 (stereo not drawn)    1.0
3  NS(=O)(=O)c1ccc(Nc2nc(N/N=C/c3ccccn3)nc(Nc3ccccc3)n2)cc1    1.0
4  O=C(CSc1nnc(-c2ccc3nc(-c4ccccc4)[nH]c3c2)o1)Nc1ccc(C(=O)/C=C/c2ccccc2)cc1    0.0

What outcome does the record of this test show for CC1(C)CC[C@]2(CN)CC[C@]3(C)C(=CC[C@@H]4[C@@]5(C)CCCNC(C)(C)[C@@H]5CC[C@]43C)[C@H]2C1 ? 0.0

What outcome does the record of this test show for C=CCn1c(SCC(=O)Nc2ccc(C(=O)/C=C/c3cc(OC)c(OC)c(OC)c3)cc2)nnc1-c1c[nH]c2ccccc12 ? 0.0

What outcome does the record of this test show for NC(N)=Nc1ccc(Oc2cccc(NC(N)=Nc3ccc(Br)c(C(F)(F)F)c3)c2)cc1 ? 0.0
